# PROCEDURE_DETAILS: HRP/luminol detection interference without ALR, dose response, artefact control for ALR inhibitor project, biochemical, luminescence, no ALR or DTT, cherry-pick (AID 540356)
# EXPERIMENTAL_CONDITIONS: HRP/H2O2 luminol luminescence counterscreen; series mostly up to 10 µM
The whole screen tested about 2,500 compounds, of which about 360 (14%) were called active. Not all results are given here.
TEST_READOUT: outcome

| COMPOUND | TEST_READOUT | RECORDED_MEASUREMENT |
| --- | --- | --- |
| COc1ccc(C(=O)N2CCCC(Nc3ccc(C)c(C)c3)C2)cc1 (stereo not drawn) | outcome | inactive |
| CCCc1ccc(-c2cc(N)n[nH]2)cc1 | outcome | inactive |
| COc1cccc(-c2noc(Cn3nc(C)c([N+](=O)[O-])c3C)n2)c1 | outcome | inactive |
| COc1ccc(N2C(=O)CSC2c2ccncc2)cc1 (stereo not drawn) | outcome | inactive |
| O=C(Nc1ccccc1N1CCCC1)c1ccccc1F | outcome | inactive |
| Cc1nc(C(F)(F)F)c(C(=O)O)cc1-c1nc(-c2ccccc2)cs1 | outcome | inactive |
| CN(C)c1ccc(C(=O)Nc2nc3c(s2)CCCC3)cc1 | outcome | inactive |
| O=C1CS/C(=N/N=C/c2ccco2)N1Cc1ccc(F)cc1 | outcome | inactive |
| Nc1ccc(CCc2ccc(N)cc2)cc1 | outcome | inactive |
| Cc1cccc(-n2c(-c3ccoc3C)n[nH]c2=S)c1 | outcome | inactive |
| Cc1cccc(N/N=C/c2ccc(O)c(O)c2O)c1 | outcome | inactive |
| O=C(C1CCCC1)N1CCCC(Nc2ccccc2)C1 (stereo not drawn) | outcome | inactive |
| O=C(N/N=C/c1ccncc1)c1cccc(N/N=C/c2ccncc2)c1 | outcome | inactive |

---

# PROCEDURE_DETAILS: HRP/luminol detection interference without ALR, dose response, artefact control for ALR inhibitor project, biochemical, luminescence, no ALR or DTT, cherry-pick (AID 540356)
# EXPERIMENTAL_CONDITIONS: HRP/H2O2 luminol luminescence counterscreen; series mostly up to 10 µM
Out of some 2,500 compounds screened, about 360 (14%) were called active. Not all results are given here.

| MOLECULE | outcome |
| --- | --- |
| Nc1ccc(-c2nc3cc(N)ccc3o2)cc1 | inactive |
| COc1ccc(C2NC(=O)CS2)cc1OC (centres undefined) | inactive |
| CN(C)c1ccc(NC(=O)Nc2ccc3snnc3c2)cc1 | inactive |
| Cc1c(Cl)cccc1-n1c(-c2cccnc2)n[nH]c1=S | inactive |

---

# PROCEDURE_DETAILS: HRP/luminol detection interference without ALR, dose response, artefact control for ALR inhibitor project, biochemical, luminescence, no ALR or DTT, cherry-pick (AID 540356)
# EXPERIMENTAL_CONDITIONS: HRP/H2O2 luminol luminescence counterscreen; series mostly up to 10 µM
Among all 2,500 compounds or so, about 360 (14%) were called active.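 The calls were made as follows: active = signal-lowering compounds whose fitted half-maximal concentration AC50 is no higher than ten times their top tested concentration; inconclusive = flat curve with 30 to 70% inhibition, or poor fit; inactive = flat within 30%, signal increase, or AC50 above limit.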 These entries were drawn from the full list.
Outcome codes: yes (1) (active), no (0) (inactive)

| SAMPLE_SMILES | CAT |
| --- | --- |
| O=S(=O)(Nc1ccc(N2CCCCC2)cc1)c1cccc2cccnc12 | no (0) |
| COc1ccc(NCC(=O)N/N=C/C2CCCCC2)cc1 | no (0) |
| O=c1/c(=C/c2ccc(O)cc2)sc2n1CCCN=2 | yes (1) |

meta.source: PubChem BioAssay AID540356
